binding signal overview
- study_target: OsWRKY34 (Oryza sativa, UniProt Q0JBA9 1-250)
- Sequence (Q0JBA9 entry or part of it): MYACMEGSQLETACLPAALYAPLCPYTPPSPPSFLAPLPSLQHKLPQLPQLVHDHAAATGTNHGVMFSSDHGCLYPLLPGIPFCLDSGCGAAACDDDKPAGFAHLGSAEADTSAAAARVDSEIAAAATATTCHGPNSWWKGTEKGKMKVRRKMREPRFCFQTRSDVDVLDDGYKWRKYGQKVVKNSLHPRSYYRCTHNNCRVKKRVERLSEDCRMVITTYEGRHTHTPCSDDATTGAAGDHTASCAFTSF
- procedure_summary: protein-binding microarray (RPBM); PBS, 2% BSA, 51.3 ng/ul salmon testes DNA, 50 uM zinc acetate, 200 nM TF, 25 C, 1 h; high values mean tight binding
- study_conditions: protein: recombinant; tags: N-terminal polyhistidine and DsRed monomer fusion (pET32a); label: CyDye5-dUTP incorporated in the synthesized complementary strand; 3' TTTTT single-stranded linker to array surface; dsDNA, one strand shown
Over roughly 68,000 sequences, “fluorescence intensity (a.u.)” has its median near 9,100; the highest 2% begin near 16,000. The sample as a whole holds a higher share of the highest values than the screen did.

{"record_sequence": "ACCTTCTTACCCACTCCACCCACTGACAACGTTGGCCACCCGGAGTCACCTAGTGCAG", "measurement_type": "binding signal", "measured_result": "9360 fluorescence intensity (a.u.)"}
{"record_sequence": "CTCCTCTTCTTCTCTTCTCCTTCGTTGGGCGTGGGCGTCGCGGAGTCACCTAGTGCAG", "measurement_type": "binding signal", "measured_result": "12400 fluorescence intensity (a.u.)"}
{"record_sequence": "TGGTTTGGTTTGCTTCTTCTCTGCTTCAACGGTTGGTCGACGGAGTCACCTAGTGCAG", "measurement_type": "binding signal", "measured_result": "16900 fluorescence intensity (a.u.)"}
{"record_sequence": "ATCACATCAACCTGTCATATACACACAACTTTTCAGTCATCGGAGTCACCTAGTGCAG", "measurement_type": "binding signal", "measured_result": "8530 fluorescence intensity (a.u.)"}

Prompt: Requested read-out: binding signal. Entry: `TTCGGGTTCAATTTCAGGTTCAGTCGCTTGCTTGGTGCTTCGGAGTCACCTAGTGCAG`
Completion: 8960 fluorescence intensity (a.u.)

Prompt: Follow-up entry: `AAGAATTTTGCTTTGGTTCAACCTTTTTTCTCTTCTTTCTCGGAGTCACCTAGTGCAG`
Completion: 11300 fluorescence intensity (a.u.)

Prompt: Follow-up entry: `TATCTTAGGGCATGTTTGGTTGTACGGATCGTACCTGACTCGGAGTCACCTAGTGCAG`
Completion: 9620 fluorescence intensity (a.u.)

Prompt: Follow-up entry: `ATTGAGATAGAGGGAGTGGTTGGGATGGTGAAGTTGCTATCGGAGTCACCTAGTGCAG`
Completion: 9450 fluorescence intensity (a.u.)

Prompt: Follow-up entry: `TAATTTTACTCGATACTCTATGTACCCCTGAAATTTCGCTCGGAGTCACCTAGTGCAG`
Completion: 9560 fluorescence intensity (a.u.)

Prompt: Follow-up entry: `TGCCTGTAGTGGCGGTTGGGGATGCGGATAAGGCGAGGGGCGGAGTCACCTAGTGCAG`
Completion: 14500 fluorescence intensity (a.u.)

Prompt: Follow-up entry: `CGATACTTTCATGGGTGGGTCCTATGTTGCACGGTTGGTTCGGAGTCACCTAGTGCAG`
Completion: 22900 fluorescence intensity (a.u.)

Prompt: Follow-up entry: `TATATACTTTCATGGGTCTATATTTATATGTATGTATACACGGAGTCACCTAGTGCAG`
Completion: 8690 fluorescence intensity (a.u.)

Prompt: Follow-up entry: `GGGTTGGTTTGGTTTGGTTGCTTCTTCTCTGCTTCAACGGCGGAGTCACCTAGTGCAG`
Completion: 40000 fluorescence intensity (a.u.)

Prompt: Follow-up entry: `TATATAACACAAAATAAGATCAACGTTGACCCGGGTTGACCGGAGTCACCTAGTGCAG`
Completion: 10200 fluorescence intensity (a.u.)

Prompt: Follow-up entry: `AACACTCACATCAAGTCATCAACCGACCTTGTCAAGTCAACGGAGTCACCTAGTGCAG`
Completion: 10600 fluorescence intensity (a.u.)

Prompt: Follow-up entry: `TCGGTTTCATACGTGGGGTCTGTTGGTGGAGGTGTTGCCACGGAGTCACCTAGTGCAG`
Completion: 9440 fluorescence intensity (a.u.)

Prompt: Follow-up entry: `GGGTGGGGAGGTGGTGGTCGTCGGGCAGGTGGGGAGGATGCGGAGTCACCTAGTGCAG`
Completion: 23900 fluorescence intensity (a.u.)

Prompt: Follow-up entry: `CAGGTCATTTTGGTGTGTGCTTTGCGGTATTAACTCGTGCCGGAGTCACCTAGTGCAG`
Completion: 8700 fluorescence intensity (a.u.)

Prompt: Follow-up entry: `GGTGCGTGTTCGGGATGGGGTTCGGGTTCAATTTCAGGTTCGGAGTCACCTAGTGCAG`
Completion: 16700 fluorescence intensity (a.u.)
